- experiment_description: Pharmacokinetics of Tac in rats alone or co-administered with deoxyschizandrin or Wuzhi capsule (UHPLC-MS/MS of plasma)
- Assay type: in vivo, SD rats
- condition_details: male, SD, rat, plasma, 1 mg/kg, NG2204: 1.0 mg/kg of Tac plus 75 mg/kg deoxyschizandrin, rat plasma
reported_endpoint: AUC(0-t)
Respond with a number, then the unit of measure.

Using the record for C=CC[C@@H]1/C=C(\C)C[C@H](C)C[C@H](OC)[C@H]2O[C@@](O)(C(=O)C(=O)N3CCCC[C@H]3C(=O)O[C@H](/C(C)=C/[C@@H]3CC[C@@H](O)[C@H](OC)C3)[C@H](C)[C@@H](O)CC1=O)[C@H](C)C[C@@H]2OC [Tac, Tacrolimus] , report its AUC(0-t).
314 ng·h/mL

###

- experiment_description: Pharmacokinetics of Tac in rats alone or co-administered with deoxyschizandrin or Wuzhi capsule (UHPLC-MS/MS of plasma)
- Format: in vivo, SD rats
- condition_details: male, SD, rat, plasma, 1 mg/kg, NG2205: 1.0 mg/kg of Tac plus 150 mg/kg deoxyschizandrin, rat plasma
reported_endpoint: Tmax (h)
Give the value in h but do not write h after it.

Using the record for `C=CC[C@@H]1/C=C(\C)C[C@H](C)C[C@H](OC)[C@H]2O[C@@](O)(C(=O)C(=O)N3CCCC[C@H]3C(=O)O[C@H](/C(C)=C/[C@@H]3CC[C@@H](O)[C@H](OC)C3)[C@H](C)[C@@H](O)CC1=O)[C@H](C)C[C@@H]2OC` , report its Tmax.
1.08

###

- experiment_description: Pharmacokinetics of Tac in rats alone or co-administered with deoxyschizandrin or Wuzhi capsule (UHPLC-MS/MS of plasma)
- Type: in vivo, SD rats
- condition_details: male, SD, rat, plasma, 1 mg/kg, NG2206: 1.0 mg/kg of Tac plus 300 mg/kg deoxyschizandrin, rat plasma
reported_endpoint: half-life (h)
Give the value in h but do not write h after it.

Using the record for `C=CC[C@@H]1/C=C(\C)C[C@H](C)C[C@H](OC)[C@H]2O[C@@](O)(C(=O)C(=O)N3CCCC[C@H]3C(=O)O[C@H](/C(C)=C/[C@@H]3CC[C@@H](O)[C@H](OC)C3)[C@H](C)[C@@H](O)CC1=O)[C@H](C)C[C@@H]2OC` , report its half-life.
6.59

###

- experiment_description: Pharmacokinetics of deoxyschizandrin in rats after single and multiple administrations (UHPLC-MS/MS of plasma)
- Assay type: in vivo, SD rats
- condition_details: male, SD, rat, plasma, po, 150 mg/kg, NG2202: 150 mg/kg deoxyschizandrin multiple (12 days), rat plasma, D11-D12
reported_endpoint: Tmax (h)
Give the value in h but do not write h after it.

Using the record for `COc1cc2c(c(OC)c1OC)-c1c(cc(OC)c(OC)c1OC)C[C@H](C)[C@H](C)C2` , report its Tmax.
1.5

###

- experiment_description: Pharmacokinetics of deoxyschizandrin in rats after single and multiple administrations (UHPLC-MS/MS of plasma)
- Format: in vivo, SD rats
- condition_details: male, SD, rat, plasma, po, 150 mg/kg, NG2201: 150 mg/kg deoxyschizandrin single, rat plasma, D1-D2
reported_endpoint: AUC(0-inf)

Using the record for COc1cc2c(c(OC)c1OC)-c1c(cc(OC)c(OC)c1OC)C[C@H](C)[C@H](C)C2 [deoxyschizandrin] , report its AUC(0-inf).
806 ng·h/mL

###

- experiment_description: Pharmacokinetics of deoxyschizandrin in rats after single and multiple administrations (UHPLC-MS/MS of plasma)
- Format: in vivo, SD rats
- condition_details: male, SD, rat, plasma, po, 150 mg/kg, NG2201: 150 mg/kg deoxyschizandrin single, rat plasma, D1-D2
reported_endpoint: Cmax (ng/mL)
Give the value in ng/mL but do not write ng/mL after it.

Using the record for `COc1cc2c(c(OC)c1OC)-c1c(cc(OC)c(OC)c1OC)C[C@H](C)[C@H](C)C2` , report its Cmax.
148

###

- experiment_description: Pharmacokinetics of Tac in rats alone or co-administered with deoxyschizandrin or Wuzhi capsule (UHPLC-MS/MS of plasma)
- Assay type: in vivo, SD rats
- condition_details: male, SD, rat, plasma, 1 mg/kg, NG2203: 1.0 mg/kg of Tac alone, rat plasma
reported_endpoint: MRT (h)
Give the value in h but do not write h after it.

Using the record for `C=CC[C@@H]1/C=C(\C)C[C@H](C)C[C@H](OC)[C@H]2O[C@@](O)(C(=O)C(=O)N3CCCC[C@H]3C(=O)O[C@H](/C(C)=C/[C@@H]3CC[C@@H](O)[C@H](OC)C3)[C@H](C)[C@@H](O)CC1=O)[C@H](C)C[C@@H]2OC` , report its MRT.
6.54

###

- experiment_description: Pharmacokinetics of deoxyschizandrin in rats after single and multiple administrations (UHPLC-MS/MS of plasma)
- Assay type: in vivo, SD rats
- condition_details: male, SD, rat, plasma, po, 150 mg/kg, NG2201: 150 mg/kg deoxyschizandrin single, rat plasma, D1-D2
reported_endpoint: MRT (h)
Give the value in h but do not write h after it.

Using the record for `COc1cc2c(c(OC)c1OC)-c1c(cc(OC)c(OC)c1OC)C[C@H](C)[C@H](C)C2` , report its MRT.
5.17

###

- experiment_description: Pharmacokinetics of Tac in rats alone or co-administered with deoxyschizandrin or Wuzhi capsule (UHPLC-MS/MS of plasma)
- Assay type: in vivo, SD rats
- condition_details: male, SD, rat, plasma, 1 mg/kg, NG2207: 1.0 mg/kg of Tac plus Wuzhi capsule (equivalent to 150 mg/kg deoxyschizandrin), rat plasma
reported_endpoint: half-life (min)
Give the value in min but do not write min after it.

Using the record for C=CC[C@@H]1/C=C(\C)C[C@H](C)C[C@H](OC)[C@H]2O[C@@](O)(C(=O)C(=O)N3CCCC[C@H]3C(=O)O[C@H](/C(C)=C/[C@@H]3CC[C@@H](O)[C@H](OC)C3)[C@H](C)[C@@H](O)CC1=O)[C@H](C)C[C@@H]2OC [Tac, Tacrolimus] , report its half-life.
496

###

- experiment_description: Pharmacokinetics of deoxyschizandrin in rats after single and multiple administrations (UHPLC-MS/MS of plasma)
- Assay type: in vivo, SD rats
- condition_details: male, SD, rat, plasma, po, 150 mg/kg, NG2202: 150 mg/kg deoxyschizandrin multiple (12 days), rat plasma, D11-D12
- Description: The mobile phase A was acetonitrile, and mobile phase B was 0.1% formic acid in water, and the initial mobile phase of gradient elution program was consisted of 60% phase A and 40% phase B. The sample injection volume was set at 10 μL. Gradient elution program was supplied in Supplementary Table S1. The mass spectrometry detection was achieved on an Agilent 6460A mass spectrometer with ESI source. […] All analytes were detected in positive ionization mode. […]
reported_endpoint: MRT (h)
Give the value in h but do not write h after it.

Using the record for COc1cc2c(c(OC)c1OC)-c1c(cc(OC)c(OC)c1OC)C[C@H](C)[C@H](C)C2 [deoxyschizandrin] , report its MRT.
6.95

###

- experiment_description: Pharmacokinetics of Tac in rats alone or co-administered with deoxyschizandrin or Wuzhi capsule (UHPLC-MS/MS of plasma)
- Type: in vivo, SD rats
- condition_details: male, SD, rat, plasma, 1 mg/kg, NG2204: 1.0 mg/kg of Tac plus 75 mg/kg deoxyschizandrin, rat plasma
reported_endpoint: half-life (h)
Give the value in h but do not write h after it.

Using the record for `C=CC[C@@H]1/C=C(\C)C[C@H](C)C[C@H](OC)[C@H]2O[C@@](O)(C(=O)C(=O)N3CCCC[C@H]3C(=O)O[C@H](/C(C)=C/[C@@H]3CC[C@@H](O)[C@H](OC)C3)[C@H](C)[C@@H](O)CC1=O)[C@H](C)C[C@@H]2OC` , report its half-life.
7.31

###

- experiment_description: Pharmacokinetics of Tac in rats alone or co-administered with deoxyschizandrin or Wuzhi capsule (UHPLC-MS/MS of plasma)
- Assay type: in vivo, SD rats
- condition_details: male, SD, rat, plasma, 1 mg/kg, NG2206: 1.0 mg/kg of Tac plus 300 mg/kg deoxyschizandrin, rat plasma
reported_endpoint: Cmax

Using the record for C=CC[C@@H]1/C=C(\C)C[C@H](C)C[C@H](OC)[C@H]2O[C@@](O)(C(=O)C(=O)N3CCCC[C@H]3C(=O)O[C@H](/C(C)=C/[C@@H]3CC[C@@H](O)[C@H](OC)C3)[C@H](C)[C@@H](O)CC1=O)[C@H](C)C[C@@H]2OC [Tac, Tacrolimus] , report its Cmax.
67.4 ng/mL

###

- experiment_description: Pharmacokinetics of Tac in rats alone or co-administered with deoxyschizandrin or Wuzhi capsule (UHPLC-MS/MS of plasma)
- Format: in vivo, SD rats
- condition_details: male, SD, rat, plasma, 1 mg/kg, NG2205: 1.0 mg/kg of Tac plus 150 mg/kg deoxyschizandrin, rat plasma
reported_endpoint: MRT (h)
Give the value in h but do not write h after it.

Using the record for `C=CC[C@@H]1/C=C(\C)C[C@H](C)C[C@H](OC)[C@H]2O[C@@](O)(C(=O)C(=O)N3CCCC[C@H]3C(=O)O[C@H](/C(C)=C/[C@@H]3CC[C@@H](O)[C@H](OC)C3)[C@H](C)[C@@H](O)CC1=O)[C@H](C)C[C@@H]2OC` , report its MRT.
6.02
